Numbers sourced from PubChem BioAssay (Tox21).

- assayText: qHTS assay to identify small molecule antagonists of the progesterone receptor (PR) signaling pathway - cell viability counter screen (AID 1346798); further: nearly all actives have a fitted effect of over 50% in size
- assayConditions: PR-UAS-bla HEK293T viability, CellTiter-Glo luminescence, 16 h; series mostly up to 92.4 µM
Records with an inconclusive call do not appear. Calls of active or inactive are those of the source. The call rests on the fitted dose curve; in most records, active means well fitted cell-killing curve with a large enough effect in the repeat runs; inconclusive means weak or mixed curves, or effect the other way; inactive means no such curve, though single readings can be large or run the other way.
Classes to choose from: yes (1) = active, no (0) = inactive

- compound: "CCCCCCCCCC(=O)O"
  labelClass: "no (0)"
- compound: "COC(=O)Nc1nc2ccc(Sc3ccccc3)cc2[nH]1"
  labelClass: "no (0)"
- compound: "Cc1cc(Cc2ccc(N)c(C)c2)ccc1N"
  labelClass: "no (0)"
- compound: "Oc1c(Cl)cc(Cl)c(Cl)c1Cl"
  labelClass: "no (0)"
- compound: "Nc1cc(-c2ccncc2)c[nH]c1=O"
  labelClass: "no (0)"
- compound: "Clc1cc(Cl)c(Cl)cc1Cl"
  labelClass: "no (0)"
- compound: "NCCc1ccc(O)c(O)c1"
  labelClass: "no (0)"
- compound: "S=c1nc[nH]c2nc[nH]c12"
  labelClass: "yes (1)"

IN: # outcome recorded in this test, key = `O=C(O)c1ccc([N+](=O)[O-])cc1`
OUT: no (0)

IN: Let us now turn to `Cc1cc(O)cc(C)c1Cl`
OUT: no (0)

IN: Let us now turn to `Clc1ccc(Cl)c(Cl)c1Cl`
OUT: no (0)

IN: Let us now turn to OCC1CCCO1 (stereo unspecified)
OUT: no (0)

IN: Let us now turn to `CC[Si](OC(C)=O)(OC(C)=O)OC(C)=O`
OUT: no (0)

IN: Let us now turn to `Cc1cc(O)c2c(c1)C(=O)c1cc(O)cc(O)c1C2=O`
OUT: no (0)

IN: Let us now turn to `C=C(C)C(=O)OCCC[Si](OC)(OC)OC`
OUT: no (0)

IN: Let us now turn to CCCCC(CC)COC(C)=O (stereo unspecified)
OUT: no (0)

----------
- studyTarget: Bile acid receptor (Homo sapiens) (UniProt Q96RI1)
- Sequence (Q96RI1 whole entry, looked up): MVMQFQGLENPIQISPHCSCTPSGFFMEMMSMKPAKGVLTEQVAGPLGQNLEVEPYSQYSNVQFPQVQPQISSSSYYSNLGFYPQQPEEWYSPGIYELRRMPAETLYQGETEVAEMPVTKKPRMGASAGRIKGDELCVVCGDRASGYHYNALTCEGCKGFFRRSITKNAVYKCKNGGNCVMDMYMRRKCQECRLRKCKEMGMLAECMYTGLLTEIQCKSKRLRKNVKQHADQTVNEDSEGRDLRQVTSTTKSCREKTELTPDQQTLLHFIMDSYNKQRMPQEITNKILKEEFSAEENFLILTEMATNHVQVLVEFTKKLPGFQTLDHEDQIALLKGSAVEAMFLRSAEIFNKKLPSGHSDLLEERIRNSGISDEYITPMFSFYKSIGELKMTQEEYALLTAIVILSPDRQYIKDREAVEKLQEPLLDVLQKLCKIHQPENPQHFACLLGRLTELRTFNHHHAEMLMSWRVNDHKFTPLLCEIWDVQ
- assayText: qHTS assay to identify small molecule antagonists of the farnesoid-X-receptor (FXR) signaling pathway (AID 743217); further: on the % scale 0 is the no-effect control and ±100 the full control effect
- assayConditions: HEK293T FXR-UAS-bla, beta-lactamase ratio, CDCA-stimulated, 16 h; series mostly up to 62.6 µM
Results filed as inconclusive are left out. The source made the active and inactive calls. Calls follow the shape of the dose curve; as a rule, active = well fitted inhibition curve with a large enough effect in the signal ratio in the repeat runs (not every such curve was filed as active); inconclusive = weak or mixed curves, or effect the other way; inactive = no such curve, though single readings can be large or run the other way; the % refers to the signal ratio.
measurementType: outcome

- compound: "O=C(O)c1cc(-c2ccccc2)nc2ccccc12"
  outcome: "inactive"
- compound: "CCCCCCCCCCCCOCC1CO1 (stereo not given)"
  outcome: "inactive"
- compound: "Oc1ccc2ccccc2c1N=Nc1ccccc1"
  outcome: "inactive"
- compound: "O=C(O)c1ccc([N+](=O)[O-])cc1"
  outcome: "inactive"

Field: next compound
IN: Given the entry `Cc1cc(=O)[nH]c(C(C)C)n1` , report its measured outcome.
OUT: inactive

----------
- studyTarget: Nuclear receptor subfamily 1 group I member 2 (Rattus norvegicus)
- assayText: Rat pregnane X receptor (rPXR) activation by small molecules, qHTS assay (AID 1346983); further: on the % scale 0 is the no-effect control and ±100 the full control effect; nearly all actives have a fitted effect of over 20% in size
- assayConditions: rPXR luciferase reporter cells, One-Glo luminescence, 24 h; stronger effect = higher value
- From the text: National Center for Advancing Translational Sciences [NCATS] NIH Chemical Genomics Center [NCGC] U.S. Environmental Protection Agency [EPA] National Institutes of Environmental Health Sciences [NIEHS] National Toxicology Program [NTP] Assay overview: The Pregnane X receptor (PXR), a ligand activated nuclear receptor plays a critical role in the regulation of genes involved in drug metabolism and transporters. […]
Records with an inconclusive call do not appear.
Consider the following molecules; for each one, report its max activation.
Give bare numbers, in %.

Use these answered entries as a reference point.
- compoundStructure: "CS(=O)(=O)c1ccc([C@@H](O)[C@@H](CO)NC(=O)C(Cl)Cl)cc1"
  numericValue: -0.108
- compoundStructure: "c1ccc2ccccc2c1"
  numericValue: -0.655
- compoundStructure: "O=C1N=C(O)CN1/N=C/c1ccc(-c2ccc([N+](=O)[O-])cc2)o1"
  numericValue: -4.97
- compoundStructure: "Cc1cc(O)cc(C)c1Cl"
  numericValue: -1.35
- compoundStructure: "C[C@@H]1O[C@@H](OC[C@H]2O[C@@H](Oc3c(-c4ccc(O)c(O)c4)oc4cc(O)cc(O)c4c3=O)[C@H](O)[C@@H](O)[C@@H]2O)[C@H](O)[C@H](O)[C@H]1O"
  numericValue: -1.22
- compoundStructure: "Nc1nc2ncc(CNc3ccc(C(=O)N[C@@H](CCC(=O)O)C(=O)O)cc3)nc2c(=O)[nH]1"
  numericValue: -0.844
- compoundStructure: "CCOC(=O)[C@H](CCc1ccccc1)N[C@@H](C)C(=O)N1Cc2ccccc2C[C@H]1C(=O)O"
  numericValue: -0.751
- compoundStructure: "C=C1CC[C@H](O)CC1=C/C=C1\\CCC[C@]2(C)[C@@H]([C@H](C)/C=C/[C@H](C)C(C)C)CC[C@@H]12"
  numericValue: -1.33

Field: next molecule
IN: Given the entry `CC(=O)Nc1ccc(C(=O)O)cc1` , report its measured max activation.
OUT: -3.56

----------
- assayText: qHTS assay to identify small molecule antagonists of the constitutive androstane receptor (CAR) signaling pathway - cell viability counter screen (AID 1224837); further: nearly all actives have a fitted effect of over 45% in size
- assayConditions: HepG2-CYP2B6-hCAR viability, CellTiter-Fluor, 23 h, co-treated with 50 nM CITCO; series mostly up to 92.4 µM
Records with an inconclusive call do not appear. Calls of active or inactive are those of the source. The call rests on the fitted dose curve; in most records, active means well fitted cell-killing curve with a large enough effect in the repeat runs; inconclusive means weak or mixed curves, or effect the other way; inactive means flat fitted curve, though single readings scatter.
Classes to choose from: T (active), F (inactive)

Here's what some known entries look like.
- compound: "Cc1cc(NS(=O)(=O)c2ccc(N)cc2)no1"
  labelClass: "F"
- compound: "CCCCCCC(C)(C)S"
  labelClass: "F"
- compound: "CCCCCC/C=C/CCCCCCCC(=O)O"
  labelClass: "F"
- compound: "COCC(=O)O"
  labelClass: "F"

IN: # outcome recorded in this test, key = CCOC(=O)C1OC1c1ccccc1 (configuration not stated)
OUT: F

IN: Let us now turn to `C[C@@H]1O[C@@H](OC[C@H]2O[C@@H](Oc3c(-c4ccc(O)c(O)c4)oc4cc(O)cc(O)c4c3=O)[C@H](O)[C@@H](O)[C@@H]2O)[C@H](O)[C@H](O)[C@H]1O`
OUT: F

IN: Let us now turn to `Oc1ccc2ccccc2c1N=Nc1ccccc1`
OUT: T

IN: Let us now turn to `CC(C)(N=C=O)c1cccc(C(C)(C)N=C=O)c1`
OUT: F

IN: Let us now turn to `CCCCCCCCCC(=O)O`
OUT: F

IN: Let us now turn to `CC(C)n1c(/C=C/[C@@H](O)C[C@@H](O)CC(=O)O)c(-c2ccc(F)cc2)c2ccccc21`
OUT: F

IN: Let us now turn to `C=C(C)C(=O)OCCCCCC`
OUT: F

IN: Let us now turn to `Nc1nc2ncc(CNc3ccc(C(=O)N[C@@H](CCC(=O)O)C(=O)O)cc3)nc2c(=O)[nH]1`
OUT: F

----------
- assayText: qHTS assay to identify small molecule antagonists of the sonic hedgehog signaling (Shh) pathway (AID 1259369); further: nearly all actives have a fitted effect of over 45% in size
- assayConditions: NIH/3T3 Gli1-Luc reporter, Shh antagonist, luminescence 24 h; series mostly up to 92.4 µM
- Excerpt: U.S. Tox21 Program National Center for Advancing Translational Sciences [NCATS] NIH Chemical Genomics Center [NCGC] U.S. Environmental Protection Agency [EPA] National Institutes of Environmental Health Sciences [NIEHS] National Toxicology Program [NTP] U.S. Food and Drug Administration [FDA] Tox21 Assay Overview: The sonic hedgehog (Shh) pathway is essential for normal embryonic development. Dysregulation of the Shh pathway can cause severe developmental defects in organs. […]
Results filed as inconclusive are left out. Calls of active or inactive are those of the source. The call rests on the fitted dose curve.
Classes to choose from: active, inactive

- compound: "C/C=C(C)/C=C/C=C(C)C"
  labelClass: "active"
- compound: "O=C(c1ccc(O)cc1)c1ccc(O)cc1O"
  labelClass: "active"

IN: # outcome recorded in this test, key = `CS(=O)(=O)Nc1ccc([N+](=O)[O-])cc1Oc1ccccc1`
OUT: inactive

IN: Let us now turn to CCCCC(CC)COC(C)=O (stereo unspecified)
OUT: inactive

IN: Let us now turn to `C[C@@H]1O[C@@H](OC[C@H]2O[C@@H](Oc3c(-c4ccc(O)c(O)c4)oc4cc(O)cc(O)c4c3=O)[C@H](O)[C@@H](O)[C@@H]2O)[C@H](O)[C@H](O)[C@H]1O`
OUT: inactive

IN: Let us now turn to CC1COc2ccccc2N1C(=O)C(Cl)Cl (stereo unspecified)
OUT: active
